biological target: EGFR (human), P00533 [Inhibition of EGFR(L858RT/790M) Kinase Activity]
Sequence (P00533 whole entry, looked up, change not shown): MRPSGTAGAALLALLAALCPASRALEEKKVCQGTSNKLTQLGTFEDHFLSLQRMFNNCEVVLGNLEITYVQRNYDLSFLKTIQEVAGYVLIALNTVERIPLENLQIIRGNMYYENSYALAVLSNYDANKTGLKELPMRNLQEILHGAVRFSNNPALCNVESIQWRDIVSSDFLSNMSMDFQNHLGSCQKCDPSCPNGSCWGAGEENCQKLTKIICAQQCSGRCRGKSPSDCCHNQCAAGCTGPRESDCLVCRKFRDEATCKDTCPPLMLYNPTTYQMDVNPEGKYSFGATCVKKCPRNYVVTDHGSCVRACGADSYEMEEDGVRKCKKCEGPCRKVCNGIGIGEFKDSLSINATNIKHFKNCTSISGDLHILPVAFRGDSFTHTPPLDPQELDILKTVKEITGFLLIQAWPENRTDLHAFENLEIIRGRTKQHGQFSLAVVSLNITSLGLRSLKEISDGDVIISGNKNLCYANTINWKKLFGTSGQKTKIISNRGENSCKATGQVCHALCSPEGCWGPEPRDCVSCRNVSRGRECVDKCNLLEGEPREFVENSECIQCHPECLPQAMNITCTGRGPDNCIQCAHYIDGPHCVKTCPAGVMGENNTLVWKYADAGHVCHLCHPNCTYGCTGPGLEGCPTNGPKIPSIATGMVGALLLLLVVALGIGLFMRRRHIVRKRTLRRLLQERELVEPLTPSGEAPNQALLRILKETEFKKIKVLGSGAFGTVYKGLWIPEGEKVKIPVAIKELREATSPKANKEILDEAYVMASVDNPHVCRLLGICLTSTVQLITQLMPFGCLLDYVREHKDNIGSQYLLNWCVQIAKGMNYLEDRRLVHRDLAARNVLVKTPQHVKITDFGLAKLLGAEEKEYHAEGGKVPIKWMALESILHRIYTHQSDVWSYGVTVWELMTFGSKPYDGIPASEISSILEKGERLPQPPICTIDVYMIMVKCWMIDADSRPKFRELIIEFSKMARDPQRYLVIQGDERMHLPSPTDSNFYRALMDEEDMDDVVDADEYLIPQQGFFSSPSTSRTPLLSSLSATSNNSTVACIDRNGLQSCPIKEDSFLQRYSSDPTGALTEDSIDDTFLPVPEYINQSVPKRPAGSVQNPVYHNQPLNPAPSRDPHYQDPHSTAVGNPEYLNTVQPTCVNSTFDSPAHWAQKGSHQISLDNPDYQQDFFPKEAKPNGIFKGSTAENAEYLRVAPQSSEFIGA
pIC50: −log10 of the molar value.
Overview of reported pIC50 across a group of compounds:

Look over these answered cases.
C=CC(=O)N1CCc2c(sc3ncnc(N[C@H](COCc4cccc([N+](=O)[O-])c4)c4ccccc4)c23)C1: 6.30 to 8.00
C=CC(=O)N1CCc2c(sc3ncnc(N[C@H](COC)c4ccccc4)c23)C1: 6.30 to 8.00
CN(C)C/C=C/C(=O)N1CCc2c(sc3ncnc(Nc4ccc(F)c(Cl)c4)c23)C1: 6.30 to 8.00
CN(C)C/C=C/C(=O)N1CCc2c(sc3ncnc(N[C@H](COCc4ccccn4)c4ccccc4)c23)C1: 5.60 to 6.30
CC[C@@H](Nc1ncnc2sc3c(c12)CCN(C(=O)/C=C/CN(CC)CC)C3)c1ccccc1: 5.60 to 6.30

Tell me the measured pIC50 of `C=CC(=O)N1CCc2c(sc3ncnc(N[C@H](COCc4cccc(OC)c4)c4ccccc4)c23)C1` , please.
6.30 to 8.00

Please give the result for `CN(C)C/C=C/C(=O)N1CCc2c(sc3ncnc(N[C@H](COCc4ccccc4)c4ccccc4)c23)C1` too.
5.60 to 6.30

`O=C(/C=C/CN1CCOCC1)N1CCc2c(sc3ncnc(N[C@H](CO)c4ccccc4)c23)C1` ?
5.60 to 6.30

Repeat for the following compound: `C=CC(=O)N1CCc2c(sc3ncnc(N[C@H](COCc4cccc(C)c4)c4ccccc4)c23)C1`
6.30 to 8.00

* * *

biological target: EGFR (human), P00533 [WT]
Sequence (P00533 whole entry, looked up): as the sequence (P00533 whole entry, looked up, change not shown) above
EXPERIMENTAL_READOUT: IC50

Example results:
CN(C)C/C=C/C(=O)N1CCc2c(sc3ncnc(N[C@H](CO)Cc4ccccc4)c23)C1: 101 to 900 nM
CN1CCN(C/C=C/C(=O)N2CCc3c(sc4ncnc(N[C@H](CO)c5ccccc5)c34)C2)CC1: < 59 nM
CN(C)C/C=C/C(=O)N1CCc2c(sc3ncnc(N[C@H](CCO)c4ccccc4)c23)C1: < 59 nM
OC[C@@H](Nc1ncnc2sc3c(c12)CCCC3)c1ccccc1: 101 to 900 nM
O=C(O)[C@@H](Nc1ncnc2sc(-c3ccccc3)cc12)c1ccccc1: 101 to 900 nM

Request the reported IC50 associated with `CN(C)C/C=C/C(=O)N1CCc2c(sc3ncnc(N[C@H](COCc4cccnc4)c4ccccc4)c23)C1`
< 59 nM

Queued: `C=CC(=O)N1CCc2c(sc3ncnc(N[C@H](CC)c4ccccc4)c23)C1`
< 59 nM

Same again, this time with `C=CC(=O)N1CCc2c(sc3ncnc(N[C@H](COCc4cccc(C)c4)c4ccccc4)c23)C1`
< 59 nM

And the next one, `CN(C)C/C=C/C(=O)N1CCc2c(sc3ncnc(Nc4ccc(F)c(Cl)c4)c23)C1` ?
< 59 nM

Check `C=CC(=O)Nc1cccc(-c2cc3c(N[C@H](CO)c4ccccc4)ncnc3s2)c1` too.
< 59 nM

And `C[C@@H](Nc1ncnc2sc3c(c12)CCN(C(=O)/C=C/CN=[N+]=[N-])C3)c1ccccc1` ?
< 59 nM

Then what about the compound `CC(=O)OC[C@@H](Nc1ncnc2sc3c(c12)CCN(C(=O)/C=C/CN(C)C)C3)c1ccccc1` ?
< 59 nM

Can you check `C[C@@H](Nc1ncnc2sc3c(c12)CCN(C(=O)/C=C/CNC1CC1)C3)c1ccccc1` next?
< 59 nM

What about `C=C(CN(C)C)C(=O)N1CCc2c(sc3ncnc(N[C@H](CO)c4ccccc4)c23)C1` ?
101 to 900 nM

Also check `C=CC(=O)Nc1ccc(-c2nc3c(N[C@H](CO)c4ccccc4)ncnc3o2)cc1`
101 to 900 nM

Follow-up entry: `OC[C@@H](Nc1ncnc2sc(-c3ccccc3)c(Cl)c12)c1ccccc1`
101 to 900 nM

What about `C=CS(=O)(=O)N1CCc2c(sc3ncnc(N[C@H](CO)c4ccccc4)c23)C1` ?
60 to 100 nM

Same read-out for `OC[C@@H](Nc1ncnc2oc(-c3ccccc3)c(-c3ccco3)c12)c1ccccc1` ?
101 to 900 nM

How about this compound: `COC[C@@H](Nc1ncnc2sc3c(c12)CCN(C(=O)/C=C/CN(C)C)C3)c1ccccc1`
< 59 nM

Same question for `CCN(CC)C/C=C/C(=O)N1CCc2c(sc3ncnc(N[C@H](C)c4ccccc4)c23)C1` please.
< 59 nM

Now try `C[C@@H](Nc1ncnc2sc3c(c12)CCN(C(=O)/C=C/CNc1ccccc1)C3)c1ccccc1` .
101 to 900 nM

Please give the result for `CC(=O)Nc1cccc(-c2c(-c3ccccc3)oc3ncnc(N[C@H](CO)c4ccccc4)c23)c1` too.
101 to 900 nM

* * *

Below are IC50 values recorded for EGFR (human), P00533 [WT].

Completed entries (count: 2):
O=C(/C=C/CN1CCCCC1)N1CCc2c(sc3ncnc(N[C@H](CO)c4ccccc4)c23)C1: < 59 nM
CC#CC(=O)Nc1cccc(-c2c(-c3ccccc3)oc3ncnc(N[C@H](CO)c4ccccc4)c23)c1: < 59 nM

Dear colleague, I am looking for the recorded IC50 of the following compound: `C=CC(=O)N1CCc2c(sc3ncnc(N[C@H](COCc4cccc([N+](=O)[O-])c4)c4ccccc4)c23)C1`
< 59 nM

Try `CCN(CC)C/C=C/C(=O)N1CCc2c(sc3ncnc(N[C@H](COC)c4ccccc4)c23)C1` next.
60 to 100 nM

// next record `C=CC(=O)Nc1cccc(-c2csc3ncnc(N[C@H](CO)c4ccccc4)c23)c1`
< 59 nM

* * *

pIC50: −log10 of the molar value.
Observed pIC50, system EGFR (human), P00533 [WT].

C[C@@H](Nc1ncnc2sc3c(c12)CCN(C(=O)/C=C/CN(C)C)C3)c1ccc(Br)cc1: > 7.23
O=C(O)[C@@H](Nc1ncnc2sc3c(c12)CCCC3)c1ccccc1: 6.05 to 7.00
CN(C)C/C=C/C(=O)Nc1cccc(-c2c(-c3ccccc3)oc3ncnc(N[C@H](CO)c4ccccc4)c23)c1: > 7.23
OC[C@@H](Nc1ncnc2sc(-c3ccccc3)cc12)c1ccccc1: 6.05 to 7.00
CN(C)C/C=C/C(=O)N1CCc2c(sc3ncnc(N[C@H](COCc4ccccc4F)c4ccccc4)c23)C1: > 7.23

What value of measured pIC50 is listed for `C[C@@H](Nc1ncnc2sc3c(c12)CCN(C(=O)/C=C/CNN1CCCCC1)C3)c1ccccc1` ?
> 7.23

Now the same for `CN(C)C/C=C/C(=O)N1CCc2c(sc3ncnc(N[C@H](CCOCc4ccccc4F)c4ccccc4)c23)C1`
> 7.23

Same question, `C[C@@H](Nc1ncnc2sc3c(c12)CCN(C(=O)/C=C/CN(C)C)C3)c1ccccc1` this time
> 7.23

Query `COc1ccc(-c2c(-c3ccccc3)oc3ncnc(N[C@H](CO)c4ccccc4)c23)cc1` next
6.05 to 7.00

* * *

molecular target: EGFR (human), P00533 [WT]
Each entry below carries its recorded IC50.

Answered examples (3):
C=CC(=O)N1CCc2c(sc3ncnc(N[C@H](COCc4cccc(F)c4)c4ccccc4)c23)C1: < 59 nM
C=CC(=O)Nc1ccc(-c2c(-c3ccccc3)oc3ncnc(N[C@H](C)c4ccccc4)c23)cc1: 101 to 900 nM
O=C(/C=C/CN1CCOCC1)N1CCc2c(sc3ncnc(N[C@H](CO)c4ccccc4)c23)C1: < 59 nM

Entry `CN(C)C/C=C/C(=O)N1CCc2c(sc3ncnc(N[C@H](CO)c4ccccc4)c23)C1` has what IC50?
< 59 nM

Same for `CN(C)C/C=C/C(=O)N1CCc2c(sc3ncnc(N[C@H](COCc4cccc(F)c4)c4ccccc4)c23)C1`
< 59 nM

* * *

molecular target: EGFR (human) (UniProt P00533)
pIC50: −log10 of the molar value.
EXPERIMENTAL_READOUT: pIC50

Worked set:
CC[C@@H](Nc1ncnc2sc3c(c12)CCN(C(=O)/C=C/CN(CC)CC)C3)c1ccccc1: 7.00 to 9.00
CC(=O)OC/C=C/C(=O)N1CCc2c(sc3ncnc(N[C@H](C)c4ccccc4)c23)C1: 7.00 to 9.00

Record lookup: for EGFR (human) (UniProt P00533), what pIC50 belongs to `OC[C@@H](Nc1ncnc2oc(-c3ccccc3)c(-c3ccccc3)c12)c1ccccc1` ?
6.00 to 6.52

What would you report for `C=CC(=O)Nc1ccc(-c2c(-c3ccccc3)oc3ncnc(N[C@H](CO)c4ccccc4)c23)cc1` ?
6.00 to 6.52

Record: `CCC[C@@H](Nc1ncnc2sc3c(c12)CCN(C(=O)/C=C/CN(C)C)C3)c1ccccc1`
7.00 to 9.00

Next compound: `CCN(CC)C/C=C/C(=O)N1CCc2c(sc3ncnc(N[C@H](COC)c4ccccc4)c23)C1`
7.00 to 9.00

Same question for `C=CC(=O)N1CCc2c(sc3ncnc(N[C@H](CO[Si](C)(C)C(C)(C)C)c4ccccc4)c23)C1` please.
6.00 to 6.52

Try this compound next: `C=CC(=O)N1CCc2c(sc3ncnc(N[C@H](COCc4cccc(OC)c4)c4ccccc4)c23)C1`
7.00 to 9.00

Same thing, different compound: `CC(=O)Nc1cccc(-c2c(-c3ccccc3)oc3ncnc(N[C@H](CO)c4ccccc4)c23)c1`
6.52 to 7.00

Entry to check: `CN(C)C/C=C/C(=O)N1CCc2c(sc3ncnc(N[C@H](CCOCc4ccccc4F)c4ccccc4)c23)C1`
7.00 to 9.00

Source of measurements: the Kinase Knowledgebase extract (Sharma et al. 2016)
